System: NCI-H522 lung
Assay Protocol: NCI tumour cell line growth inhibition, 48 h
Task for the reader: assign each of the following compounds its reported TGI.
Numbers only, in µM.

These recorded examples may help you get a feel for the data.
Compound: CCCCN1/C(=N/Nc2n[nH]c(=O)c3ccccc23)SCC1c1ccc(Cl)cc1 (centres undefined)
Unit Annotation: µM
TGI: 37.1

Compound: c1csc(-c2[nH]nc3c2CCc2ccccc2-3)c1
Unit Annotation: µM
TGI: 44.9

Compound: CCOC(=O)c1c(SCCN(CC)CC)n(-c2ccccc2)c(=S)n(-c2ccccc2)c1=O
Unit Annotation: µM
TGI: 3.67

Compound: CCCCc1c2c(nc3c1CC/C(=C\c1ccccc1)C3=O)CCCC2
Unit Annotation: µM
TGI: 6.37

Compound: COC(=O)c1ccccc1NCc1cc(O)ccc1O
Unit Annotation: µM
TGI: 6.75

Compound: CC(=O)Oc1cc(OC(C)=O)c2c(c1C)CC[C@@H]1[C@@H]2CC[C@]2(C)[C@@H](OC(C)=O)CC[C@@H]12
Unit Annotation: µM
TGI: 32

Quick request: TGI for each listed item, please.
1. Cc1cc(N(CCCl)CCCl)ccc1/C=N\NC(=O)c1cccnc1
2. CCOC(=O)c1c(/C=N\Nc2ccccc2)nc2ccccc2c1-c1ccccc1
3. O=C(c1ccccc1)c1ccc(N2C(=O)C3C4c5ccccc5C(/C=C/C(=O)c5ccccn5)(c5ccccc54)C3C2=O)cc1 (centres undefined)
4. CCN(CCCl)c1ccc(NC(=O)c2cc(C(=O)NCCN(C)C)cc(C(=O)Nc3ccc(N(CC)CCCl)cc3)c2)cc1
5. O=C(/C=C/N1CCN(c2cccc(Cl)c2)CC1)c1ccc(Cl)cc1
6. O=C1CSC(c2cccc(Oc3ccccc3)c2)N1c1cc(Cl)ccc1Cl (centres undefined)
7. Nn1c(=S)[nH]nc(/C=C/c2c(O)ccc3ccccc23)c1=O
8. CC(=O)OCc1cc2c(s1)C(=O)c1sccc1C2=O

Solution:
[32.3, 67.1, 6.82, 11.4, 54.6, 41.1, 16.7, 0.295]

* * *

System: UO-31 renal
Assay Protocol: NCI tumour cell line growth inhibition, 48 h
Quantity: TGI

These recorded examples may help you get a feel for the data.
Molecule: CCOC(=O)N/N=C(/N)Cc1ccc(Cl)cc1
TGI: > 100 µM
--
Molecule: CCOP(=O)(OCC)/C(C#N)=C(\C)c1ccco1
TGI: > 10 µM
--
Molecule: CC(=O)OC/C=C/Cn1nc(Br)c(=O)[nH]c1=O
TGI: > 100 µM
--
Molecule: CCOC(=O)c1ccc(-c2cccs2)[nH]1
TGI: > 89 µM
--
Molecule: CCNc1nc(-c2ccc(Cl)c(OC)c2)c(-c2ccnc(NCCNS(=O)(=O)c3ccc(Cl)cc3)n2)s1
TGI: 6.37 µM
--
Molecule: CCCCCNC(=O)OC1CCn2c1nc1c2C(=O)C(C)=C(N2CC2)C1=O (stereo not given)
TGI: 3.87 µM

Quick request: TGI for each listed item, please.
1. O=C(NCc1ccc(Cl)c(Cl)c1)c1nc2ccccc2nc1NCc1ccc(Cl)c(Cl)c1
2. Nc1cc(O)c2cc(N=Nc3ccc(N=Nc4ccc(N=Nc5ccc6cc(S(=O)(=O)O)cc(S(=O)(=O)O)c6c5)c5ccccc45)c4cc(S(=O)(=O)O)ccc34)c(S(=O)(=O)O)cc2c1

Solution:
> 100 µM
> 100 µM

Quick request: TGI for each listed item, please.
1. O=C1OC(c2ccccc2)=N/C1=C\c1ccc(N(CCCl)CCCl)cc1
2. O=C1COc2c(CCNCCN(C(=O)CCNCCc3ccc(Cl)c(Cl)c3)C3CCCCC3)ccc(O)c2N1

Solution:
1: > 100 µM; 2: 31 µM
